test.summary: chemical genetic growth profiling, strain panel (AID 1159580);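 further: tested at 20 µM; growth read once vehicle control cultures reached saturation at 30 °C; lower values mean less growth of the strain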
assay.conditions: S. cerevisiae deletion strains, growth OD, locus YLR330W, strain CHS5
About 2,000 (36%) of roughly 5,500 compounds were called active. Roughly 18% stayed inconclusive and do not appear here. No stated cut-off is given here; in the data, active means normalized growth mostly below about 0.91 (no sharp cut-off); inconclusive means no clear call, values can overlap the other calls; inactive means mostly above about 0.92. The list shows a part of the results.
Outcomes: t (active), f (inactive)

CC(=O)OCC(CCn1cnc2cnc(N)nc21)COC(C)=O : f
Cc1cc(=O)c2c(O)c(C)c(O)cc2o1 : f
CC(=O)O[C@]1(C(C)=O)CCC2C3C=C(C)C4=CC(=O)CCC4(C)C3CCC21C (stereo partly drawn) : f
CC1(C)C2CC[C@]3(C)C(C(=O)C=C4[C@@H]5C[C@@](C)(C(=O)O)CC[C@]5(C)CC[C@]43C)[C@@]2(C)CC[C@@H]1OC(=O)CCC(=O)O (stereo partly drawn) : f
O=C1CC(c2ccccc2)Oc2ccccc21 (stereo not drawn) : f
CCC1(c2ccccc2)C(=O)NCNC1=O : f
O=C1C[C@@H](c2ccc(O)cc2)Oc2cc(O)cc(O)c21 : f
CC(=O)[C@H]1CCC2C3C[C@H](C)C4=CC(=O)CC[C@]4(C)C3[C@@H](O)C[C@@]21C (stereo partly drawn) : f
C=CCc1ccc2c(c1)OCO2 : f
CC(=O)O[C@@](C)(CCC=C(C)C)C1CC=C(C)CC1 (stereo partly drawn) : f
O=C1CC(c2ccc(O)cc2)Oc2ccccc21 (stereo not drawn) : t
CCCCCC(=O)O[C@]1(C(C)=O)CCC2C3CCC4=CC(=O)CC[C@]4(C)C3CC[C@@]21C (stereo partly drawn) : f
CCCCOc1ccc(CC(=O)NO)cc1 : f
C=C(C)/C=C1/C=CC(=O)C(C)=C1 : t
O=[N+]([O-])O[C@H]1CO[C@H]2[C@@H]1OC[C@H]2O[N+](=O)[O-] : f
CCCCCC(C)N (stereo not drawn) : f
Nc1nc2[nH]c(=O)c(=O)[nH]c2c(=O)[nH]1 : f
COc1ccc([C@@H]2CC(=O)c3c(O)cc(O)cc3O2)cc1O : f
CCC1(C)CC(=O)NC1=O (stereo not drawn) : f
COc1ccc(C2CC(=O)c3ccc(OC)cc3O2)cc1 (stereo not drawn) : t
C[C@@H]1O[C@@H](O[C@H]2[C@@H](Oc3cc(O)c4c(c3)O[C@H](c3ccc(O)cc3)CC4=O)O[C@H](CO)[C@@H](O)[C@@H]2O)[C@H](O)[C@H](O)[C@H]1O : f
CN1C2CC3C[C@H]1C(O3)C2O (stereo partly drawn) : f
COc1cc(OC)c2c(c1)OC(c1ccccc1)CC2=O (stereo not drawn) : f
